test system: T47D; experiment: NCI tumour cell line growth inhibition, 48 h
Calls of active or inactive are those of the source. Rule as the data show it: active = GI50 up to about 1.1 µM and inactive = higher.
measured-attribute: GI50

Look over these answered cases.
CN(C)S(=O)(=O)c1ccc(Nc2ccc(O)c3c2C(=O)c2c([N+](=O)[O-])ccc(O)c2C3=O)cc1 :: > 100 µM (inactive)
CC1(C)N=C(N)N=C(N)N1c1ccc(CCCCc2ccc(Cl)cc2Cl)cc1 :: 1.29 µM (inactive)

Next item in the queue.
Request the reported GI50 associated with `CCOC(=O)c1nnsc1NC(=O)Nc1ccc(Cl)cc1` 34.3 µM (inactive)

###

system: OVCAR-3; assay: NCI tumour cell line growth inhibition, 48 h
Activity calls are given as the source filed them. Rule as the data show it: active = GI50 up to about 1.1 µM and inactive = higher.
Listed molecules paired with reported GI50

N/C(COc1ccc(Cl)cc1)=N\NC(=O)c1ccncc1 :: > 100 µM (inactive)
C=CCC(NCc1ccccc1)[C@H](OCc1ccccc1)[C@@H]1COC(C)(C)O1 (stereo partly specified) :: 44.9 µM (inactive)
O=C(CN(c1ccccc1)c1ccccc1)N1c2ccccc2C2C=CC=CC21 (stereo unspecified) :: 17.4 µM (inactive)
CN(C)c1ccc(/C=C/C=C\c2cc(/C=C/C=C/c3ccc(N(C)C)cc3)[s+]c3ccccc23)cc1.[O-][Cl+3]([O-])([O-])[O-] :: 31.8 µM (inactive)
COc1cccc(/C=C/c2cc(OC)c(OC)c(OC)c2)c1 :: 26.8 µM (inactive)
CC12CCC3=C(CSC4=C3CSc3ccccc34)C1=CCCC2=O (stereo unspecified) :: 13.5 µM (inactive)

Request the reported GI50 associated with `NCCNc1ncnc2ccc(Cl)cc12` > 100 µM (inactive)

Request the reported GI50 associated with `COC(=O)c1cc(NC(=O)c2cc(NC(=O)c3cc([N+](=O)[O-])cn3C)cn2C)cn1C` > 100 µM (inactive)
